Reported IC50 is given for each of the following molecules.
- measured target: Recombinant human JAK2 catalytic domain (Homo sapiens (Human), UniProt O60674)
- Sequence (O60674 808-1132): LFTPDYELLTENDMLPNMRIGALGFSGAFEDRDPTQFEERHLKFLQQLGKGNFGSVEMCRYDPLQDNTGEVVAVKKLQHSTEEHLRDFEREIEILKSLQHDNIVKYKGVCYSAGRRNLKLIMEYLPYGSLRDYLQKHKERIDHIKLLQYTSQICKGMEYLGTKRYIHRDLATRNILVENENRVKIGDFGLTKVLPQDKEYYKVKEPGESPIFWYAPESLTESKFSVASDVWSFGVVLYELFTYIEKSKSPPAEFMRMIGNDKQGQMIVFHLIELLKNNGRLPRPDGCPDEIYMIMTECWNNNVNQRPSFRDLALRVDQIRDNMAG
- method description: JAK2 inhibition assay
- Type: biochemical
- assay conditions: semi-quantitative score

Please review the entries below; each comes with its answer.
entry smiles	IC50
CC(=O)N1CCN(C(=O)c2ccc(-c3cccc4nc(NC(=O)C5CC5)nn34)cc2)CC1	501 to 1000 nM
Cc1cc(COc2ccc(-c3cccc4nc(NC(=O)C5CC5)nn34)cc2)n(C)n1	< 100 nM
O=C(Nc1nc2cccc(-c3ccc(CNc4ncccn4)cc3)n2n1)C1CC1	< 100 nM

# ---- query molecule ----
GET /value?item= CCCCN(CCCN1CCOCC1)C(=O)c1ccc(-c2cccc3nc(NC(=O)C4CC4)nn23)cc1 &field=IC50 returns 501 to 1000 nM

This collection of values is drawn from patent US10206907B2.
